Here, each record is paired with measured IC50 data.
target: BRD4 BD2 (Homo sapiens, UniProt O60885); assay: AlphaScreen binding assay, BRD4 Bromodomain 2

These solved cases illustrate the format of a correct answer.
>  <COMPOUND>
CC(=O)N1c2ccccc2N(Cc2ccc(F)cc2F)C[C@@H]1C

>  <IC50>
> 500 nM

$$$$
>  <COMPOUND>
CC(=O)N1c2cc(F)c(-c3cnn(C4CC4)c3)cc2N(C(=O)OC(C)C)C[C@@H]1C

>  <IC50>
50 to 500 nM

$$$$

Inquiry: Consider the compound shown here: "COC(=O)N1c2ccc(-c3cnn(Cc4cncnc4)c3)cc2N(C(=O)OC(C)C)C[C@@H]1C" What is its recorded IC50?
Reply text: 50 to 500 nM

Inquiry: Looking for the measured IC50 of "CC(=O)N1c2ccc(-c3cnn(CCO)c3)cc2N(c2nn(C)c3ccc(F)cc23)C[C@@H]1C" , can you help?
Reply text: 50 to 500 nM

Inquiry: Look at this compound and give its reported IC50. "CC(=O)N1c2ccc(-c3ccc(C#N)cc3)cc2N(C(=O)c2ccco2)C[C@@H]1C"
Reply text: < 50 nM

Inquiry: What measured IC50 goes with "CC(=O)N1c2ccc(-c3cnn(Cc4ccncc4)c3)cc2N(C(=O)OC(C)C)C[C@@H]1C" ?
Reply text: 50 to 500 nM

Inquiry: # query: IC50 of entry "CC(=O)N1c2ccc(-c3ccc(C(=O)O)cc3)cc2N(C(=O)c2ccco2)C[C@@H]1C"
Reply text: 50 to 500 nM

Inquiry: Please report the recorded IC50 for "CC(=O)N1c2ccc(-c3cnc(C)s3)cc2N(C(=O)c2ccco2)C[C@@H]1C" .
Reply text: < 50 nM

Inquiry: Using the record for "CC(=O)N1c2ccc(-c3ccccn3)cc2N(C(=O)c2ccco2)C[C@@H]1C" , report its IC50.
Reply text: 50 to 500 nM

Inquiry: Entry CC(=O)N1c2ccc(-c3c[nH]nc3C(F)(F)F)cc2N(C(=O)OC(C)C)CC1C (stereo not drawn) : reported IC50 = ?
Reply text: > 500 nM

Inquiry: Given "CC(=O)N1c2ccc(-c3cnn(CCO)c3)cc2N(c2nn(C)c3cc(F)ccc23)C[C@@H]1C" , state its recorded IC50.
Reply text: < 50 nM

Inquiry: For the compound shown here, "CC(=O)N1c2ccc(-c3cnn(C4CS(=O)(=O)C4)c3)cc2N(C(=O)C2CC2)C[C@@H]1C" , give the reported IC50.
Reply text: < 50 nM

Inquiry: // query IC50 value for entry "CCOC(=O)N1C[C@H](C)N(C(C)=O)c2ccc(-c3cc(N4CCCS4(=O)=O)cc(C(F)(F)F)c3)cc21"
Reply text: 50 to 500 nM

Inquiry: Quick one: IC50 for "CC(=O)N1c2ccc(-c3cccc(-n4nc(C)cc4C)c3)cc2N(C(=O)c2ccco2)C[C@@H]1C" ?
Reply text: < 50 nM

Inquiry: Recorded IC50 of "CC(=O)N1c2ccc(-c3cc(Cl)cc(S(C)(=O)=O)c3)cc2N(C(=O)OC2CCOCC2)C[C@@H]1C" , please.
Reply text: > 500 nM

* * *

Examples of compounds with documented IC50 follow.
molecular target: BRD4 BD2 (Homo sapiens); test: AlphaScreen binding assay, BRD4 Bromodomain 2

>  <SMILES REPR>
CC(=O)N1c2ccccc2N(C(=O)Cc2nc(-c3ccccc3)oc2C)C[C@@H]1C

>  <IC50>
> 0.5 µM

$$$$

Inquiry: What value of measured IC50 is listed for "CC(=O)N1c2ccc(-c3cnn(C(F)F)c3)cc2N(C(=O)OC(C)C)C[C@@H]1C" ?
Reply text: 0.05 to 0.5 µM

Inquiry: Quick check: IC50 of "CC(=O)N1c2ccc(-c3cccc(S(=O)(=O)C4CC4)c3)cc2N(C(=O)OC2CCOCC2)C[C@@H]1C" ?
Reply text: 0.05 to 0.5 µM
